Test system: Rat Aorta
Experiment: Inhibition of calcium chloride-induced contraction of depolarized vascular smooth muscle segments (rat aorta)
Type: cell-based, rat (male Sprague-Dawley)
Conditions: Rattus norvegicus, at 10^-7 M; 1.0 mM calcium chloride-induced contraction; read-out: Percent Inhibition of Rat Aorta
The reader will find reported inhibition at 0.1 µM values listed item by item below.
Write the answer as a number in %, unit excluded.

C1=Cc2ccccc2C(C2CCNCC2)c2ccccc21 : 39
CC(C)N1CCC(C2c3ccccc3C=Cc3ccccc32)CC1 : 44
C1=Cc2ccccc2C(C2CCN(C3CCCCC3)CC2)c2ccccc21 : 48

Ask: Field: inhibition at 0.1 µM (Rat Aorta). Entry: C[N+]1([O-])CCC(C2c3ccccc3C=Cc3ccccc32)CC1 (stereo not drawn) [monohydrate]
Reply: 17

Ask: Please answer likewise for CN1CCC(C2c3ccccc3C=Cc3ccc(Br)cc32)CC1 (racemic)
Reply: 80

Ask: Same lookup for CN1CCC(C2c3ccccc3C=Cc3ccccc32)CC1 , please.
Reply: 30
